- Procedure Text: Kinetic solubility determination by LC-UV
- Condition Details: water, Solubility µM (H2O), 24 h, room temperature, 1% DMSO
Listed here: items and their measured solubility at 24 h.

Past entries and their recorded results:
- CC(=O)OCCOc1nc(C)cn2cc([N+](=O)[O-])nc12 [25c]: 169 µM
- O=c1c2nc([N+](=O)[O-])cn2ccn1Cc1cccc(OC(F)(F)F)c1 [17f]: < 5 µM
- Cc1nc(OCc2ccccc2OC(F)(F)F)c2nc([N+](=O)[O-])cn2c1C [26i]: < 5 µM
- Cc1ccc(COc2nc(C)cn3cc([N+](=O)[O-])nc23)cc1 [25i]: < 5 µM
- O=c1[nH]ccn2cc([N+](=O)[O-])nc12 [17a, 2-Nitroimidazo[1,2-a]pyrazin-8(7H)-one]: > 200 µM
- O=[N+]([O-])c1cn2ccnc(OCc3ccccc3OC(F)(F)F)c2n1 [18i]: < 5 µM
- O=c1c2nc([N+](=O)[O-])cn2ccn1Cc1ccc(OC(F)(F)F)cc1 [17c]: < 5 µM
- O=C(Cn1ccn2cc([N+](=O)[O-])nc2c1=O)N1CCOCC1 [17r]: 192 µM

Now for a further molecule.
Q: // Input: CC(=O)OCCn1c(C)cn2cc([N+](=O)[O-])nc2c1=O [25b] . Output its solubility at 24 h only.
Ans: > 200 µM

* * *

- Procedure Text: in vitro
- Condition Details: human
Value Type: CC50

Q: Answer with the recorded CC50 for the compound listed here: O=c1[nH]c(-c2ccccc2)cn2cc([N+](=O)[O-])nc12 [24a]
Ans: > 100 µM

* * *

- Test system: ESKAPE pathogens S. aureus (ATCC 43300), E. coli (ATCC 25922), K. pneumoniae (ATCC 700603), A. baumannii (ATCC 19606), P. aeruginosa (ATCC 27853)
- Procedure Text: Broth microdilution MIC assay, ESKAPE pathogens
- Type: cell-based
Marks after values point to notes of the source that are not given here.
Value Type: antibacterial MIC ESKAPE

Answered examples (4):
* Cc1c(C)n2cc([N+](=O)[O-])nc2c(=O)n1Cc1cccc(OC(F)(F)F)c1 [26f] | >32 µg/mL
* O=[N+]([O-])c1cn2cc(-c3ccccc3)nc(OCCO)c2n1 [24e] | 16-32* μg/mL
* O=c1c2nc([N+](=O)[O-])cn2ccn1Cc1cccc(C(F)(F)F)c1 [17h] | >32 µg/mL
* Cc1cn2cc([N+](=O)[O-])nc2c(=O)n1CCO [25d] | >32 µg/mL

Q: Give the measured antibacterial MIC ESKAPE for Cc1c(C)n2cc([N+](=O)[O-])nc2c(=O)n1Cc1ccccc1OC(F)(F)F [26h]
Ans: >32 µg/mL

* * *

- Procedure Text: Mammalian cytotoxicity, liver HepG2 and kidney HEK293 cell lines stated together
- Condition Details: human
Value Type: CC50 at 24 h

Q: Return CC50 at 24 h (reported value) for this compound: O=c1c2nc([N+](=O)[O-])cn2ccn1Cc1ccccc1 [17b]
Ans: 98 to 123 µM

* * *

- Procedure Text: Kinetic solubility determination by LC-UV
- Condition Details: PBS, pH 7.4, Solubility µM (PBS), PBS pH 7.4, 24 h, room temperature, 1% DMSO
Overview of recorded solubility at 24 h for various compounds

Reference set (10 entries):
* Cc1ccc(Cn2c(C)c(C)n3cc([N+](=O)[O-])nc3c2=O)cc1 [26d] | 6.13 µM
* Cc1c(C)n2cc([N+](=O)[O-])nc2c(=O)n1Cc1cccc(OC(F)(F)F)c1 [26f] | 15.7 µM
* Cc1ccc(COc2nc(C)c(C)n3cc([N+](=O)[O-])nc23)cc1 [26e] | < 5 µM
* O=c1c2nc([N+](=O)[O-])cn2cc(-c2ccccc2)n1CCO [24d] | 164 µM
* CC(=O)OCCOc1nc(C)cn2cc([N+](=O)[O-])nc12 [25c] | 185 µM
* O=c1c2nc([N+](=O)[O-])cn2ccn1Cc1ccc(F)cc1F [17j] | < 5 µM
* Cc1ccc(Cn2ccn3cc([N+](=O)[O-])nc3c2=O)cc1 [17d] | < 5 µM
* Cc1nc(OCc2ccc(OC(F)(F)F)cc2)c2nc([N+](=O)[O-])cn2c1C [26c] | < 5 µM
* O=[N+]([O-])c1cn2ccnc(OCc3ccccc3OC(F)(F)F)c2n1 [18i] | < 5 µM
* Cc1cn2cc([N+](=O)[O-])nc2c(=O)n1Cc1ccc(OC(F)(F)F)cc1 [25f] | < 5 µM

Alright, here's another compound for you.
Q: Output measured solubility at 24 h for this item: NC(=O)Cn1ccn2cc([N+](=O)[O-])nc2c1=O [17s]
Ans: > 200 µM

* * *

C. difficile (630, ATCC BAA-1382) data, read-out MIC

• O=c1c2nc([N+](=O)[O-])cn2ccn1CCO [17p] = > 64 µg/mL
• O=c1[nH]c(-c2ccccc2)cn2cc([N+](=O)[O-])nc12 [24a] = > 64 µg/mL
• O=c1c2nc([N+](=O)[O-])cn2cc(-c2ccccc2)n1CCO [24d] = > 64 µg/mL

Q: Provide MIC, tested on C. difficile (630, ATCC BAA-1382), for O=c1c2nccn2ccn1Cc1ccccc1 [20b, 7-Benzylimidazo[1,2-a]pyrazin-8(7H)-one] .
Ans: > 64 µg/mL

Q: Provide MIC, system C. difficile (630, ATCC BAA-1382), entry Cc1cn2cc([N+](=O)[O-])nc2c(OCCO)n1 [25e]
Ans: > 64 µg/mL

Q: Fill in MIC for O=c1c2nc([N+](=O)[O-])cn2ccn1Cc1ccccn1 [17k] tested with C. difficile (630, ATCC BAA-1382).
Ans: > 64 µg/mL

* * *

Listing of recorded solubility at 24 h by entry.
- Procedure Text: Kinetic solubility determination by LC-UV
- Condition Details: water, Solubility µM (H2O), 24 h, room temperature, 1% DMSO

Below are worked cases with known answers.
* Cc1cn2cc([N+](=O)[O-])nc2c(=O)n1Cc1ccc(OC(F)(F)F)cc1 [25f] | < 5 µM
* Cc1cn2cc([N+](=O)[O-])nc2c(=O)n1Cc1cccc(OC(F)(F)F)c1 [25j] | < 5 µM
* Cc1cn2cc([N+](=O)[O-])nc2c(OCc2ccc(OC(F)(F)F)cc2)n1 [25g] | < 5 µM
* O=c1c2nc([N+](=O)[O-])cn2ccn1Cc1ccc(F)cc1F [17j] | < 5 µM
* Cc1nc(OCc2ccc(OC(F)(F)F)cc2)c2nc([N+](=O)[O-])cn2c1C [26c] | < 5 µM
* Cc1cn2cc([N+](=O)[O-])nc2c(OCCO)n1 [25e] | 196 µM
* O=c1c2nc([N+](=O)[O-])cn2ccn1CCc1ccc(OC(F)(F)F)cc1 [17m] | < 5 µM
* O=c1c2nc([N+](=O)[O-])cn2ccn1Cc1ccccc1 [17b] | < 5 µM

Q: Using the record for Cc1c(C)n2cc([N+](=O)[O-])nc2c(=O)n1Cc1ccccc1OC(F)(F)F [26h] , state its measured solubility at 24 h.
Ans: 7.28 µM

Q: Retrieve solubility at 24 h measured for O=c1c2nc([N+](=O)[O-])cn2ccn1C1CCCCC1 [17t] and print it.
Ans: < 10 µM

Q: Output measured solubility at 24 h for this item: Cc1cn2cc([N+](=O)[O-])nc2c(=O)[nH]1 [25a]
Ans: 182 µM

Q: Return value of solubility at 24 h for input Cc1ccc(CCn2ccn3cc([N+](=O)[O-])nc3c2=O)cc1 [17n] , no commentary.
Ans: < 5 µM

Q: # return recorded solubility at 24 h for entry Cc1[nH]c(=O)c2nc([N+](=O)[O-])cn2c1C [26a]
Ans: > 200 µM

Q: # return recorded solubility at 24 h for input Cc1cn2cc([N+](=O)[O-])nc2c(OCc2ccccc2OC(F)(F)F)n1 [25m]
Ans: < 5 µM

Q: State its solubility at 24 h: NC(=O)Cn1ccn2cc([N+](=O)[O-])nc2c1=O [17s]
Ans: > 200 µM

Q: Give solubility at 24 h for the following compound: Cc1ccc(Cn2c(C)c(C)n3cc([N+](=O)[O-])nc3c2=O)cc1 [26d]
Ans: 8.95 µM

Q: Hello, please tell me recorded solubility at 24 h for this one: Cc1cn2cc([N+](=O)[O-])nc2c(=O)n1CCO [25d]
Ans: > 200 µM

* * *

- Procedure Text: Kinetic solubility determination by LC-UV
- Condition Details: water, Solubility µM (H2O), 24 h, room temperature, 1% DMSO
// reported solubility at 24 h for each item listed

Recorded results for 2 molecules are shown here.
* O=c1c2nc([N+](=O)[O-])cn2ccn1CCO [17p] | > 200 µM
* Cc1ccc(COc2nc(C)c(C)n3cc([N+](=O)[O-])nc23)cc1 [26e] | < 5 µM

Q: Provide solubility at 24 h value for the following molecule: O=c1c2nc([N+](=O)[O-])cn2ccn1Cc1ccc(F)cc1 [17e]
Ans: < 5 µM

Q: For the molecule CC(=O)OCCOc1nc(-c2ccccc2)cn2cc([N+](=O)[O-])nc12 [24c] , give its measured solubility at 24 h value.
Ans: < 5 µM
